# System: HCMV
# testDescription: Anti-HCMV cytopathogenicity test (CPE inhibition)
# Assay type: cell-based, human cytomegalovirus
# testConditions: ratio CC50 (NHDF)/EC50 (HCMV)
Quick reference for SI HCMV (selectivity index = CC50 (NHDF)/EC50 (HCMV)) among some compounds
resultType: SI HCMV (selectivity index = CC50 (NHDF)/EC50 (HCMV))

1. CCn1cc(NC(=O)Nc2ccc(OC(F)(F)F)cc2)cc1C(=O)N1CCN(c2ccc(C)cn2)CC1 | 28767
2. Cc1ccc(N2CCN(C(=O)c3cc(NC(=O)Nc4ccc(OC(F)(F)F)cc4)cs3)CC2)nc1 | 3559
3. Cc1ccc(N2CCN(C(=O)c3cnc(NC(=O)Nc4ccc(OC(F)(F)F)cc4)s3)CC2)nc1 | 2637
4. Cc1ccc(N2CCN(C(=O)c3nc(NC(=O)Nc4ccc(OC(F)(F)F)cc4)sc3C)CC2)nc1 | 7333
